Tested on: Staphylococcus epidermidis
Test: Antibacterial activity against Staphylococcus epidermidis ATCC 12228 by doubling dilution method
Type: functional
Settings: Staphylococcus epidermidis, ATCC 12228; read-out: MIC
MEASURED PARAMETER: MIC
Reply with the number and its unit after it.

COMPOUND: CCC(=O)C1=C(O)C2=C(OC(C)(C)C=C2)C(C)(CC=C(C)C)C1=O (stereo in doubt; 6a)
MEASURED PARAMETER: MIC
TEST VALUE: 32 µg/mL

COMPOUND: CC(C)=CC[C@@H]1C[C@@]2(C)C(=O)[C@](CC=C(C)C)(C(=O)C(C(=O)C(C)C)=C2O)C1(C)C (stereo in doubt; 8)
MEASURED PARAMETER: MIC
TEST VALUE: 8 µg/mL

COMPOUND: CC(C)=CCC[C@@]1(C)[C@H](CC=C(C)C)C[C@]2(C)C(=O)[C@@]1(C(=O)C(C)C)C(=O)C1=C2OC(C)(C)C=C1
MEASURED PARAMETER: MIC
TEST VALUE: 32 µg/mL

Now for the compound whose MIC we want.
**Q:** I would be grateful if you could share the reported MIC for O=C(N[C@H](CO)[C@H](O)c1ccc([N+](=O)[O-])cc1)C(Cl)Cl .
**A:** 4 µg/mL

These data points were gathered from ChEMBL document CHEMBL1150854.
